assay: Plasma concentration in CD-1 mouse at 50 mg/kg, po after 1.25 hrs; format: ADME, organism-based
quantity_name: concentration at 1.25 h

COc1ccc(SCc2cnc(SCc3c(F)cc(-c4nn[nH]n4)cc3F)n2-c2ccc(F)cc2)cc1OC    0.02 µM

###

assay: Plasma concentration in C57BL/6J mouse at 50 mg/kg, po after 45 mins by LC-MS/MS analysis; format: ADME, organism-based
quantity_name: concentration at 0.75 h

COc1ccc(SCc2cnc(SCc3c(F)cc(-c4nn[nH]n4)cc3F)n2-c2ccc(F)cc2)cc1OC    1180 nM

###

test: Oral bioavailability in C57BL/6J mouse at 20 mg/kg via gavage by LC-MS/MS analysis; assay type: ADME, organism-based; settings: in vivo
quantity_name: bioavailability (%)

COc1ccc(SCc2cnc(SCc3c(F)cc(-c4nn[nH]n4)cc3F)n2-c2ccc(F)cc2)cc1OC    6.48

###

assay: Cmax in C57BL/6J mouse at 20 mg/kg, po via gavage by LC-MS/MS analysis; type: ADME, organism-based; parameters: dose 20 mg/kg, route oral; conditions: in vivo
quantity_name: Cmax (ng/mL)

COc1ccc(SCc2cnc(SCc3c(F)cc(-c4nn[nH]n4)cc3F)n2-c2ccc(F)cc2)cc1OC    68.1

###

assay: MRT in C57BL/6J mouse at 5 mg/kg, iv by LC-MS/MS analysis; assay type: ADME, organism-based; details: in vivo
quantity_name: MRT

COc1ccc(SCc2cnc(SCc3c(F)cc(-c4nn[nH]n4)cc3F)n2-c2ccc(F)cc2)cc1OC    17 min

###

assay: AUClast in C57BL/6J mouse at 20 mg/kg, po via gavage by LC-MS/MS analysis; assay type: ADME, organism-based; parameters: dose 20 mg/kg, time 0 - last, route oral; conditions: in vivo
quantity_name: AUC(0-t) (µg·h/mL)

COc1ccc(SCc2cnc(SCc3c(F)cc(-c4nn[nH]n4)cc3F)n2-c2ccc(F)cc2)cc1OC    0.0984
